Just for reference, patent US7655629B2 is where these values come from.

The substances listed here are annotated with their half-life.
applied conditions: cynomolgus monkey, plasma

INSERT INTO measurements (substance, property_name, measured_result) VALUES
  ('H-LEAIPMSIPPEFLFGKPFVF-OH [VIR-175]', 'half-life', '3 h');

Lookup: Which half-life reading was recorded for the substance H-LEAIPMSIPPEVKFNKPFVF-OH [VIRIP, reference compound] ?
Found: 5.1 h

* * *

applied conditions: rat, plasma
property name: half-life (min)
Please respond with the number in min and leave the unit unwritten.

INSERT INTO assay_data (substance, unit_string, measured_result) VALUES
  ('H-LEAIPMSIPPEVKFNKPFVF-OH [VIRIP, reference compound]', 'min', 102);

# input for lookup
Lookup: Please give the measured half-life for this substance: H-LEAIPMSIPPEFLFGKPFVF-OH [VIR-175]
Found: 12

* * *

applied conditions: human, plasma
// values below are reported half-life
Write down the numeric answer in h and omit the unit.

INSERT INTO assay_data (substance, measured_result) VALUES
  ('H-LEAIPMSIPPEFLFGKPFVF-OH [VIR-175]', 5.3);

Lookup: Using the record for H-LEAIPMSIPPEVKFNKPFVF-OH [VIRIP, reference compound] , report its half-life.
Found: 53.7

* * *

Test system: X4-tropic HIV-1 NL4-3
applied conditions: read-out: IC50 NL4-3; P4-CCR5 cells, HIV-1 NL4-3, peptide 2 h before infection, readout three days after infection
# IC50 binned as low (below 300 nM), mid (300 nM to below 2000 nM), high (2000 nM or more)

INSERT INTO measurements (substance, category) VALUES
  ('H-LEAIPMSIPPELAFAKPFVF-OH [VIR-182]', 'high'),
  ('H-LEAIPISIPPEVFFGKPFVF-OH [VIR-284]', 'low'),
  ('LEAIPMKIPPEFLFGKPFVF [VIR-590]', 'mid'),
  ('H-LEAIPMSIPPEVFFGKPFVF-OH [VIR-170]', 'mid'),
  ('H-LEAIPMSIPPEFLFGKPFVF-OH [VIR-175]', 'low');

Lookup: Bin? H-LEAIPMSIPPEFAFNKDFVF-OH [VIR-243]
Found: high

Lookup: Categorize the following entry: H-LEAIPMSIPPEVKFNKPFVF-OH [VIRIP, reference compound]
Found: high

Lookup: Into which bin does this substance go? H-LEAIPISIPPELAFAKPFVF-OH [VIR-286]
Found: mid

* * *

Below, each of the substances is paired with its reported pIC50 value.
Tested on: HIV-1 NL4-3 DTV
applied conditions: read-out: IC50 DTV, P4-CCR5 cells, peptide 2 h before infection, readout three days after infection
Interpret pIC50 as the negative base-10 log of the concentration measured in mol/L.

INSERT INTO assay_data (substance, property_name, measured_result) VALUES
  ('H-LEAIPMSIPPEFAFNKDFVF-OH [VIR-243]', 'pIC50', 5.70),
  ('H-LEAIPMSIPPEVFFGKPFVF-OH [VIR-170]', 'pIC50', 5.70),
  ('H-LEAIPMSIPPEIAFNKPFVF-OH [VIR-184]', 'pIC50', 5.27),
  ('H-LEAIPMSIPPELAFAKPFVF-OH [VIR-182]', 'pIC50', 5.53);

Now take the following substance into account.
Lookup: Recorded pIC50 for H-LEAIPMSIPPEFLFGKPFVF-OH [VIR-175] , please?
Found: 6.52
